Please go through the items and note down their dTm.
molecular target: ~100 representative kinases (Homo sapiens, UniProt P53779); construct: Recombinant protein kinase domains with a concentration of 2 μM; assay: DSF 100 kinase selectivity screen; format: binding; settings: protein MAPK10; average of three replicates;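 also: compound tested at 20 µM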
Sequence (P53779 whole entry, the tested form may be a part): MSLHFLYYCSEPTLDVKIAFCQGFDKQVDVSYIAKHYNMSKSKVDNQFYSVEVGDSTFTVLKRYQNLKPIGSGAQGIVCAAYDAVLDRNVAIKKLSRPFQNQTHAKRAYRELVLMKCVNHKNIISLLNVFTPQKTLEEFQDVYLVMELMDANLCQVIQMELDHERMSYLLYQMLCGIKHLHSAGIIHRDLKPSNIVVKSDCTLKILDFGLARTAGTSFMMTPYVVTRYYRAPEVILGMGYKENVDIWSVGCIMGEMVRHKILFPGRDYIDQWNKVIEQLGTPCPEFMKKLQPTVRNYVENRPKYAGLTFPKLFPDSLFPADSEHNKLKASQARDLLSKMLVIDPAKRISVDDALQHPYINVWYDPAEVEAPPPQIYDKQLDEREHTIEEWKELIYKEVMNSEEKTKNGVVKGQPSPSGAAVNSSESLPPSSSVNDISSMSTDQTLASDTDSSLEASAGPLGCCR
# output: bare number, implied unit K

Asked: Quick one: dTm for Cc1ccc(-n2nc(C(C)(C)C)cc2NC(=O)Nc2cccc(-c3c[nH]c4nc(Cl)nc(N5CCOCC5)c34)c2)cc1 ?
Given back: -0.06

Asked: Note, next up: O=C(Nc1cccc(-c2c[nH]c3ncnc(N4CCOCC4)c23)c1)C1(C(=O)Nc2cc(Br)c(F)cc2F)CC1
Given back: 3.64

Asked: Note, next up: O=C(Nc1cccc(-c2c[nH]c3ncnc(N4CCOCC4)c23)c1)C1(C(=O)Nc2ccc(F)c(Cl)c2)CC1
Given back: 3.57

Asked: Note, next up: CC(C)(C)c1cccc(NC(=O)C2(C(=O)Nc3cccc(-c4c[nH]c5ncnc(N6CCOCC6)c45)c3)CC2)c1
Given back: 1.37

Asked: Note, next up: C[C@@H]1CN(c2cc(-c3n[nH]c4ccc(OC5(C)CC5)cc34)ncn2)C[C@H](C)O1
Given back: 0.0276
